Cited source for all entries: paper PMC9024597

Test: Pharmacokinetics in rats after a single intravenous administration
Conditions: rat, plasma, iv, 4.8 mg/kg
observation type: Vd
Don't forget the unit after the value.

Tell me Vd reported for CN(C)CCN1CC2c3ccccc3CCN2c2nc3ccccc3nc21 (stereo not shown) [TNBG-5602]
20.2 L

* * *

Target: CYP2D6 (Homo sapiens, UniProt P10635)
Sequence (P10635 whole entry): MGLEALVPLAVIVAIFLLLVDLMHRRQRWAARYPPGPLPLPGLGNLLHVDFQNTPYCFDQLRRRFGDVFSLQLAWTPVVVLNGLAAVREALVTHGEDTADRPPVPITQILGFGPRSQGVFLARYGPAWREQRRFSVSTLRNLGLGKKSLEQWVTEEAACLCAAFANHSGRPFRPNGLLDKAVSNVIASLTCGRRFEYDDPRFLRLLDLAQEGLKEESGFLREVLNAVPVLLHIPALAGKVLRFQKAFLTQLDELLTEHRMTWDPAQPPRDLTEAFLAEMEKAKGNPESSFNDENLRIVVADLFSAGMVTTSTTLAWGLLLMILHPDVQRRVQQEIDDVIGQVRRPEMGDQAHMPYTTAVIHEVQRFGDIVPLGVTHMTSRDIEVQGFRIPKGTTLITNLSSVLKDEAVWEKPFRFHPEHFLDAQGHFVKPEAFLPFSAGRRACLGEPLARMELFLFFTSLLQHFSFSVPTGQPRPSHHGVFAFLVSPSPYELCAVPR
Assay: IC50 assessment using recombinant human CYPs (probe dextromethorphan)
Conditions: recombinant CYP 0.025 μM, dextromethorphan 0.05 mg mL^−1, 37 °C, 30 min, n = 3; read-out: IC50 against CYP2D6
observation type: pIC50
Please keep in mind that pIC50 is minus log10 of the molar concentration; only the number is needed.

Tell me pIC50 reported for CN(C)CCN1CC2c3ccccc3CCN2c2nc3ccccc3nc21 (stereo not shown)
5.60
